Where do these numbers come from? They come from paper PMC5540273.

target: LYN (Homo sapiens, UniProt P07948); assay: KINOMEscan competition binding; details: read-out: %Inh LYN
Sequence (P07948 whole entry): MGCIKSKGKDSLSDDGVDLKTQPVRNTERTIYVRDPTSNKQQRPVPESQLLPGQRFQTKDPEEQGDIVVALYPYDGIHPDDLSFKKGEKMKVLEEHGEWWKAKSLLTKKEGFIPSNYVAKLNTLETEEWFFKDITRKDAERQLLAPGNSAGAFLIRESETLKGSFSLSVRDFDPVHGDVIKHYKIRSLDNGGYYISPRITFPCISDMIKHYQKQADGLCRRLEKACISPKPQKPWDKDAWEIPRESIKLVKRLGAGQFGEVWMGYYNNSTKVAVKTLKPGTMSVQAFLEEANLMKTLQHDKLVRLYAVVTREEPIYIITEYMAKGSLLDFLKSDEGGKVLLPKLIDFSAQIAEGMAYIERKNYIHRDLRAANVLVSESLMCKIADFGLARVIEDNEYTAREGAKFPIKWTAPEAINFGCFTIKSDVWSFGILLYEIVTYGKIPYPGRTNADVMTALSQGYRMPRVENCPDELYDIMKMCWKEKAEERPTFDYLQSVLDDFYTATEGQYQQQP
result type: inhibition at 1 µM (%)

* O=c1cc(N2CCOCC2)nc2n(Cc3cccc(Cl)c3Cl)c(C3CC3)nn12 [UNC10225469A] | 0
* CS(=O)(=O)Cc1ccc(Nc2nccc(-c3c(-c4cccc(NC(=O)C5CCCCC5)c4)nn4ncccc34)n2)cc1 [UNC10225159A] | 16
* COc1cccc(OC)c1C(=O)Nc1cccc(-c2nn3ccccc3c2-c2ccnc(Nc3cccc(F)c3)n2)c1 [UNC10225310A] | 8
* Cn1cc(-c2cnc(N)c3c(-c4ccc5c(c4)CCN5C(=O)Cc4ccccc4)csc23)cn1 [UNC10225012A] | 65
* Cc1ccc(NC(=O)Nc2cccc(C(F)(F)F)c2)cc1 [UNC10225187A] | 0

====

Parameter inhibition at 1 µM: see the listing below.
biological target: CAMK1G (Homo sapiens, UniProt Q96NX5); test: KINOMEscan competition binding; conditions: read-out: %Inh CAMK1G
Sequence (Q96NX5 whole entry): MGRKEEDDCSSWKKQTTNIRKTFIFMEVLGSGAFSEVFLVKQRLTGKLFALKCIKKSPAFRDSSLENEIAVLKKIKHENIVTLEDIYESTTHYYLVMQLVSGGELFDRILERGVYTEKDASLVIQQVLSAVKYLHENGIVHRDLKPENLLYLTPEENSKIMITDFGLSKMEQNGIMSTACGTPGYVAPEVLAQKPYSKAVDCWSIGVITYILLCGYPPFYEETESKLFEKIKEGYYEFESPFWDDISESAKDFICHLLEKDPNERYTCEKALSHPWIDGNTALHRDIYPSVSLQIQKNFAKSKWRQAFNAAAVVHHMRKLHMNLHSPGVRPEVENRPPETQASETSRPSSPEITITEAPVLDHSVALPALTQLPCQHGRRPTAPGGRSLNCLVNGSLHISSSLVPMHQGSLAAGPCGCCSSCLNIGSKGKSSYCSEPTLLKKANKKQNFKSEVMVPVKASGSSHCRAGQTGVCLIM
result type: inhibition at 1 µM (%)

- COc1cccc(OC)c1C(=O)Nc1cccc(-c2nn3ccccc3c2-c2ccnc(Nc3cccc(F)c3)n2)c1 [UNC10225310A]: 0
- O=c1cc(N2CCOCC2)nc2n(Cc3cccc(Cl)c3Cl)c(C3CC3)nn12 [UNC10225469A]: 5
- Cn1cc(-c2cnc(N)c3c(-c4ccc5c(c4)CCN5C(=O)Cc4ccccc4)csc23)cn1 [UNC10225012A]: 0
- Cc1ccc(NC(=O)Nc2cccc(C(F)(F)F)c2)cc1 [UNC10225187A]: 10
- CS(=O)(=O)Cc1ccc(Nc2nccc(-c3c(-c4cccc(NC(=O)C5CCCCC5)c4)nn4ncccc34)n2)cc1 [UNC10225159A]: 0

====

target: UniProtKB P49841; assay: KINOMEscan competition binding; settings: read-out: %Inh GSK3B
Sequence (P49841 whole entry): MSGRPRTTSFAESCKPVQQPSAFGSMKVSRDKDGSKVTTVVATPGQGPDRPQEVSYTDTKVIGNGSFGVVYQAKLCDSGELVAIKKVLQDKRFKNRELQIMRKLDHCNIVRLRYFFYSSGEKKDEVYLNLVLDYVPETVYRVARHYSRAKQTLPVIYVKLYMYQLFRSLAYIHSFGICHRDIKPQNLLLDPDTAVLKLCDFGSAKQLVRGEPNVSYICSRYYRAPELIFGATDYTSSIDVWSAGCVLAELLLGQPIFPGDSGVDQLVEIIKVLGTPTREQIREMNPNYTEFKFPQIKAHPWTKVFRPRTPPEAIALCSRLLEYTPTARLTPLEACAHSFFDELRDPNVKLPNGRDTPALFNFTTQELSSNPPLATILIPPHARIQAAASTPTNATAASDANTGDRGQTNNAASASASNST
Parameter inhibition at 1 µM: see the listing below.
result type: inhibition at 1 µM (%)

- CS(=O)(=O)Cc1ccc(Nc2nccc(-c3c(-c4cccc(NC(=O)C5CCCCC5)c4)nn4ncccc34)n2)cc1 [UNC10225159A]: 20
- Cc1ccc(NC(=O)Nc2cccc(C(F)(F)F)c2)cc1 [UNC10225187A]: 0
- O=c1cc(N2CCOCC2)nc2n(Cc3cccc(Cl)c3Cl)c(C3CC3)nn12 [UNC10225469A]: 0
- Cn1cc(-c2cnc(N)c3c(-c4ccc5c(c4)CCN5C(=O)Cc4ccccc4)csc23)cn1 [UNC10225012A]: 0
- COc1cccc(OC)c1C(=O)Nc1cccc(-c2nn3ccccc3c2-c2ccnc(Nc3cccc(F)c3)n2)c1 [UNC10225310A]: 0

====

Molecular target: GRK1 (Homo sapiens, UniProt Q15835)
Sequence (Q15835 1-563): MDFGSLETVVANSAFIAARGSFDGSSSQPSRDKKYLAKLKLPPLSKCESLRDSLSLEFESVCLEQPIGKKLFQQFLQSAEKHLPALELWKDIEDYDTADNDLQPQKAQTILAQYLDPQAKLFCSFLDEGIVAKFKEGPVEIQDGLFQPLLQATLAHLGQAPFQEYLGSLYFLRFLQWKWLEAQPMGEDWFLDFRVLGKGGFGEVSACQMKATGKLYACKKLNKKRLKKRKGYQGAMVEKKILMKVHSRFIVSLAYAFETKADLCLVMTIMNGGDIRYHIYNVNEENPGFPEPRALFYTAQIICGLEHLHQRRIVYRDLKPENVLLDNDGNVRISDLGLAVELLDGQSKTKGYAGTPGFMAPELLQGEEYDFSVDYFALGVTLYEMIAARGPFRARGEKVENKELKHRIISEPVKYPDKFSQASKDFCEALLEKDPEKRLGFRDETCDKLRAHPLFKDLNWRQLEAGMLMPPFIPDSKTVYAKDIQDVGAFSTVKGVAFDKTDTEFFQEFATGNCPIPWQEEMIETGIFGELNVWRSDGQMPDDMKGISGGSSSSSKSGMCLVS
Test: KINOMEscan competition binding
Conditions: read-out: %Inh GRK1
Parameter inhibition at 1 µM: see the listing below.
result type: inhibition at 1 µM (%)

• O=c1cc(N2CCOCC2)nc2n(Cc3cccc(Cl)c3Cl)c(C3CC3)nn12 [UNC10225469A] = 0
• Cn1cc(-c2cnc(N)c3c(-c4ccc5c(c4)CCN5C(=O)Cc4ccccc4)csc23)cn1 [UNC10225012A] = 0
• COc1cccc(OC)c1C(=O)Nc1cccc(-c2nn3ccccc3c2-c2ccnc(Nc3cccc(F)c3)n2)c1 [UNC10225310A] = 0
• Cc1ccc(NC(=O)Nc2cccc(C(F)(F)F)c2)cc1 [UNC10225187A] = 2
• CS(=O)(=O)Cc1ccc(Nc2nccc(-c3c(-c4cccc(NC(=O)C5CCCCC5)c4)nn4ncccc34)n2)cc1 [UNC10225159A] = 0

====

Target: GCN2(Kin.Dom.2,S808G) (Homo sapiens, UniProt Q9P2K8, S808G)
Sequence (Q9P2K8 590-1001 S808G limits assumed): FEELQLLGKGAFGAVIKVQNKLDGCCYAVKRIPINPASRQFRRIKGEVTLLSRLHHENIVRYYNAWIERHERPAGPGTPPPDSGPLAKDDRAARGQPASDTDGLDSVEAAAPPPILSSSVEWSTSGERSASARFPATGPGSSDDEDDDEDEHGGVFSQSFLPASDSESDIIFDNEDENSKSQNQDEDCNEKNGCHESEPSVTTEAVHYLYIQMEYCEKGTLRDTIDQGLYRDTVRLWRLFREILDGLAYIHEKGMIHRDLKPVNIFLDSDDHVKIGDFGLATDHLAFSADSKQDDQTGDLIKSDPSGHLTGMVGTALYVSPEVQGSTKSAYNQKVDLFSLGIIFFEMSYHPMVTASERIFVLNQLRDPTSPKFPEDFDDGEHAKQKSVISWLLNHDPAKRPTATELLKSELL
Assay: KINOMEscan competition binding
Conditions: read-out: %Inh GCN2(Kin.Dom.2,S808G)
Parameter inhibition at 1 µM: see the listing below.
result type: inhibition at 1 µM (%)

* Cc1ccc(NC(=O)Nc2cccc(C(F)(F)F)c2)cc1 [UNC10225187A] | 0
* Cn1cc(-c2cnc(N)c3c(-c4ccc5c(c4)CCN5C(=O)Cc4ccccc4)csc23)cn1 [UNC10225012A] | 91.2
* CS(=O)(=O)Cc1ccc(Nc2nccc(-c3c(-c4cccc(NC(=O)C5CCCCC5)c4)nn4ncccc34)n2)cc1 [UNC10225159A] | 0
* COc1cccc(OC)c1C(=O)Nc1cccc(-c2nn3ccccc3c2-c2ccnc(Nc3cccc(F)c3)n2)c1 [UNC10225310A] | 0
* O=c1cc(N2CCOCC2)nc2n(Cc3cccc(Cl)c3Cl)c(C3CC3)nn12 [UNC10225469A] | 0

====

Parameter inhibition at 1 µM: see the listing below.
Target: CHEK1 (Homo sapiens, UniProt O14757)
Sequence (O14757 1-476): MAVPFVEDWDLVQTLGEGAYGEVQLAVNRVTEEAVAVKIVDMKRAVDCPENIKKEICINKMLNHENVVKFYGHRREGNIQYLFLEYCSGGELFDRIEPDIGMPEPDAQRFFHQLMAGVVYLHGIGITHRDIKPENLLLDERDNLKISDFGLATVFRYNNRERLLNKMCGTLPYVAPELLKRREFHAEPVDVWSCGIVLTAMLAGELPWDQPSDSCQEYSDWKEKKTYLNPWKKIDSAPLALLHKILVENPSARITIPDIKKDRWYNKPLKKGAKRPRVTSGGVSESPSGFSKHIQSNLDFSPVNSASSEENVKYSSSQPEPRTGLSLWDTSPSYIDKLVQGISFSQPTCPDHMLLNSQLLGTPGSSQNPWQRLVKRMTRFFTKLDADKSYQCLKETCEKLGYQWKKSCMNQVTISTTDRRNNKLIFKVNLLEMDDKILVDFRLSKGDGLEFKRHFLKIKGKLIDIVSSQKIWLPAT
Assay: KINOMEscan competition binding
Conditions: read-out: %Inh CHEK1
result type: inhibition at 1 µM (%)

• O=c1cc(N2CCOCC2)nc2n(Cc3cccc(Cl)c3Cl)c(C3CC3)nn12 [UNC10225469A] = 15
• Cc1ccc(NC(=O)Nc2cccc(C(F)(F)F)c2)cc1 [UNC10225187A] = 5
• CS(=O)(=O)Cc1ccc(Nc2nccc(-c3c(-c4cccc(NC(=O)C5CCCCC5)c4)nn4ncccc34)n2)cc1 [UNC10225159A] = 12
• COc1cccc(OC)c1C(=O)Nc1cccc(-c2nn3ccccc3c2-c2ccnc(Nc3cccc(F)c3)n2)c1 [UNC10225310A] = 13
• Cn1cc(-c2cnc(N)c3c(-c4ccc5c(c4)CCN5C(=O)Cc4ccccc4)csc23)cn1 [UNC10225012A] = 9

====

Parameter inhibition at 1 µM: see the listing below.
molecular target: LRRK2 (Homo sapiens); assay: KINOMEscan competition binding; settings: read-out: %Inh LRRK2
Sequence (Q5S007 whole entry): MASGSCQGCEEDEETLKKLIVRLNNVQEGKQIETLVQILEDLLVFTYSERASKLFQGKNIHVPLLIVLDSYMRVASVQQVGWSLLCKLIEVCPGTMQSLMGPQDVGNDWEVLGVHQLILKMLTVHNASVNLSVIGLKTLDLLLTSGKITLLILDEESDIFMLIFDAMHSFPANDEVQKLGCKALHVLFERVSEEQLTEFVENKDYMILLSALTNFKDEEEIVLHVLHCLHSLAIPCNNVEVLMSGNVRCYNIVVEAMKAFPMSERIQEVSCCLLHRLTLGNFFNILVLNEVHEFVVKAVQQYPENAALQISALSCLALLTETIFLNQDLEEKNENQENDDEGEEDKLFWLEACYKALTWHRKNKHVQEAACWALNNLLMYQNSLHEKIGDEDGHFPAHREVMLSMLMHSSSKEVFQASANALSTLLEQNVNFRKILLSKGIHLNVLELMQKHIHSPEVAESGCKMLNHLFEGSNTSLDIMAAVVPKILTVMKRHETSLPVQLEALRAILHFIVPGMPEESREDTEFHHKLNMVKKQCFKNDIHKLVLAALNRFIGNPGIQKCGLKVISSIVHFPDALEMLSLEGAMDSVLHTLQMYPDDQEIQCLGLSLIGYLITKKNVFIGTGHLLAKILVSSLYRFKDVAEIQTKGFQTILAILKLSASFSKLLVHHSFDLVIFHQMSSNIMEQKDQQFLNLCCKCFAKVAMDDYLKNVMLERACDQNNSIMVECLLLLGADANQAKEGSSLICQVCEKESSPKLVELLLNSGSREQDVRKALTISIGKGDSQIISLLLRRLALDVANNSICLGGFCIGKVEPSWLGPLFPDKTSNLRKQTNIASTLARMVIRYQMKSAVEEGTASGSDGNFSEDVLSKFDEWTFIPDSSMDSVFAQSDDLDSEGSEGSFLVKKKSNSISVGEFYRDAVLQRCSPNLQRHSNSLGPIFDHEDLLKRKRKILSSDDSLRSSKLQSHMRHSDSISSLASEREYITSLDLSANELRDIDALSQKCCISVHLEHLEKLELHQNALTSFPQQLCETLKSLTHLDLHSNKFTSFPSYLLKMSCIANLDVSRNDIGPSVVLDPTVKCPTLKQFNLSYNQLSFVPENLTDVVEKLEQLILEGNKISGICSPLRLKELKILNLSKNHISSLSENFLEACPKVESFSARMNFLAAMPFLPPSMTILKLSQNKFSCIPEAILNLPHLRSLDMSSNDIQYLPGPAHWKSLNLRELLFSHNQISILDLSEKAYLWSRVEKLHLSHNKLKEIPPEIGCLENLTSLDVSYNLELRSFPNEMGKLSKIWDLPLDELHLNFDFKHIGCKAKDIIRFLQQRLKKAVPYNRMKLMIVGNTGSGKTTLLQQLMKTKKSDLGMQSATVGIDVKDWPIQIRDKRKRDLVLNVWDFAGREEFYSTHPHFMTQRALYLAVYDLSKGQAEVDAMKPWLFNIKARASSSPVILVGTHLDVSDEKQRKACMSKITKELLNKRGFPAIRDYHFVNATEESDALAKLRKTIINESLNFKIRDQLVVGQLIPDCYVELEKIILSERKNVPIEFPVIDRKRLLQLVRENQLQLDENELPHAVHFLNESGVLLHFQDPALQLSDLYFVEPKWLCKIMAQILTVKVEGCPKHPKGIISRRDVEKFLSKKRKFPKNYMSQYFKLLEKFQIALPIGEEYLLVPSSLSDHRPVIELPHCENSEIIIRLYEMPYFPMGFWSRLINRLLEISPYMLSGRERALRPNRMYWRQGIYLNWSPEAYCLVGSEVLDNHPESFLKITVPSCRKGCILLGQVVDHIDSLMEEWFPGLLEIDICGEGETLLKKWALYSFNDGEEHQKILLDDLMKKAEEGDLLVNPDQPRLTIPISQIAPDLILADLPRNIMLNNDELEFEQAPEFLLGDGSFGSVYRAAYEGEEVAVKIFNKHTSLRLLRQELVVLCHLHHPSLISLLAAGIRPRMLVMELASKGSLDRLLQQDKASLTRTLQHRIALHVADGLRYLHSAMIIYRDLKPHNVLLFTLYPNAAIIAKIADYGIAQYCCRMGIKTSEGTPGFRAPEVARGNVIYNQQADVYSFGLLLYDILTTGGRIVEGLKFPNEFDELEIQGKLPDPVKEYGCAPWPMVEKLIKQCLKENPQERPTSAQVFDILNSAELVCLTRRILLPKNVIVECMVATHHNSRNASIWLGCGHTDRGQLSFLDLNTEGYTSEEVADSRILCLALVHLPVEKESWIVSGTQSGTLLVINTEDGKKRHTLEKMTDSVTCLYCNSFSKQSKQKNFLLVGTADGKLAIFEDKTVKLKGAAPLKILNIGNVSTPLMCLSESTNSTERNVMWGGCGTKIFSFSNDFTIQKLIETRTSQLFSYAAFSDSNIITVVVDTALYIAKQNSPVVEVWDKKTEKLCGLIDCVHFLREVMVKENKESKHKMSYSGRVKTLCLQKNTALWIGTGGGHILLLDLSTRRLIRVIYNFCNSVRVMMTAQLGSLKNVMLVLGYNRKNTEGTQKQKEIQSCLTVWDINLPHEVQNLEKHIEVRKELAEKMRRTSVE
result type: inhibition at 1 µM (%)

* Cn1cc(-c2cnc(N)c3c(-c4ccc5c(c4)CCN5C(=O)Cc4ccccc4)csc23)cn1 [UNC10225012A] | 3
* O=c1cc(N2CCOCC2)nc2n(Cc3cccc(Cl)c3Cl)c(C3CC3)nn12 [UNC10225469A] | 0
* Cc1ccc(NC(=O)Nc2cccc(C(F)(F)F)c2)cc1 [UNC10225187A] | 0
* CS(=O)(=O)Cc1ccc(Nc2nccc(-c3c(-c4cccc(NC(=O)C5CCCCC5)c4)nn4ncccc34)n2)cc1 [UNC10225159A] | 20
* COc1cccc(OC)c1C(=O)Nc1cccc(-c2nn3ccccc3c2-c2ccnc(Nc3cccc(F)c3)n2)c1 [UNC10225310A] | 0
